# test-system: human dopamine D2L receptor (Homo sapiens)
# Sequence (P14416 whole entry): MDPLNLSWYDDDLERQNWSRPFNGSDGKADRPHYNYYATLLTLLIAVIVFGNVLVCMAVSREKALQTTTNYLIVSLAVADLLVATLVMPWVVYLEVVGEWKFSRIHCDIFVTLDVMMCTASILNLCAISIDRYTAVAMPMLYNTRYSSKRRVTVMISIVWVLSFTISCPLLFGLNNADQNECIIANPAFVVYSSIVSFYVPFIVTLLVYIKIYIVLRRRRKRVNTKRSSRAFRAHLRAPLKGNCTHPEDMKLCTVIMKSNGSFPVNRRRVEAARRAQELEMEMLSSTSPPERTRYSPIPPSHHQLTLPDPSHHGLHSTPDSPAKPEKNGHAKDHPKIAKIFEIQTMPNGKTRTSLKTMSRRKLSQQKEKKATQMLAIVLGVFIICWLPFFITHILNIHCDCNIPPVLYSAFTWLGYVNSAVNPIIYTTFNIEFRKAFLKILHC
# measurement-protocol: Dopamine D2L radioligand binding ([3H]Spiperone)
# condition-parameters: percent inhibition of specific binding; compound at 1 μM; read-out: Inhibition of ligand binding, Dopamine D2L
# Excerpt: Non-specific binding was estimated in the presence of […] Haloperidol. Receptor proteins were filtered and washed, the filters were then counted to determine [^3H]Spiperone specifically bound. […] Biochemical assay results are presented as the percent inhibition of specific binding in Table 9.
measure-name: inhibition at 1 µM (%)
I only need the number, in %, no unit after it.

Below, 5 compounds whose answers are already recorded.
Quick note, inhibition at 1 µM for Cc1ccc2c(c1)c1c(n2CC(C)(O)c2ccc(F)cc2)CCN(C)C1 (stereo not shown) landed at 34

# inhibition at 1 µM of "C/C(=C\n1c2c(c3cc(Cl)ccc31)CN(C)CC2)c1ccc(Cl)c(Cl)c1" = 49

Lookup result for CN1CCc2c(c3cc(Cl)ccc3n2CC(C)(O)c2ccncc2)C1 (stereo not shown) ; measured inhibition at 1 µM: 17

Record C/C(=C\n1c2c(c3cc(C)ccc31)CN(C)C(C)C2)c1ccncc1 (stereo not shown) , field inhibition at 1 µM: 72

inhibition at 1 µM reading for Cc1ccc2c(c1)c1c(n2CC(C)(O)c2ccc(O)cc2)CCN(C)C1 (stereo not shown) : 35

Further cases:
Briefly, inhibition at 1 µM measured for "C/C(=C\n1c2c(c3ccccc31)CN(C)CC2)c1ccc(C)nc1" : 11

Record "C/C(=C\n1c2c(c3cc(Cl)ccc31)CN(C)CC2)c1cnccn1" . Reported inhibition at 1 µM: 51

====

# inhibition at 0.1 µM listing for each entry below
# test-system: human recombinant serotonin (5-Hydroxytryptamine) 5-HT6 receptor (Homo sapiens)
# Construct: expressed in transfected cells; host or cells: human HeLa cells
# Sequence (P50406 whole entry): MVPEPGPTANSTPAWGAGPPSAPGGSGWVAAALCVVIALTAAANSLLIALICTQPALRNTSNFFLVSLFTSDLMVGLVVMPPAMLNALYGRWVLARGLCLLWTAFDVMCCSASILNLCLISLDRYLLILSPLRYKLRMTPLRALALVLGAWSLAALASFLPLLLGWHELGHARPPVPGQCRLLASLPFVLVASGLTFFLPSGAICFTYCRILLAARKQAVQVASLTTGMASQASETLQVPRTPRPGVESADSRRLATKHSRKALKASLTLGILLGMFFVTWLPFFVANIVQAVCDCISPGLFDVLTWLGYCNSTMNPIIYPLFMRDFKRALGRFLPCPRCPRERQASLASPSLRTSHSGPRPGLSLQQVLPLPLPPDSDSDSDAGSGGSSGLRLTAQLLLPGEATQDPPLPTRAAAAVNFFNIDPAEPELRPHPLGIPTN
# measurement-protocol: Serotonin 5-HT6 radioligand binding ([3H]LSD)
# condition-parameters: compound at 0.1 μM; read-out: Inhibition of ligand binding, Serotonin 5-HT6 (percent inhibition of specific binding)
# output: bare number, implied unit %

Field: example entries. Status: answers known.
// compound C/C(=C\n1c2c(c3cc(C)ccc31)CN(C(C)C)CC2)c1ccncc1 [Compound 272] , assay human recombinant serotonin (5-Hydroxytryptamine) 5-HT6 receptor (Homo sapiens), inhibition at 0.1 µM value: 98

Recorded inhibition at 0.1 µM for COc1ccc(C(C)(O)Cn2c3c(c4cc(C)ccc42)CN(C)CC3)cc1 (stereo not drawn) [Compound 174] on human recombinant serotonin (5-Hydroxytryptamine) 5-HT6 receptor (Homo sapiens) was 40

Summary: C/C(=C\n1c2c(c3ccc(F)cc31)CN(C)CC2)c1ccc(C)nc1 [Compound 261] , human recombinant serotonin (5-Hydroxytryptamine) 5-HT6 receptor (Homo sapiens), inhibition at 0.1 µM = 4

Response field inhibition at 0.1 µM (human recombinant serotonin (5-Hydroxytryptamine) 5-HT6 receptor (Homo sapiens)) for item CN1CCc2c(c3cc(Cl)ccc3n2/C=C(\c2ccc(F)cc2)C2CC2)C1 [Compound 203] : 97

// assay human recombinant serotonin (5-Hydroxytryptamine) 5-HT6 receptor (Homo sapiens), entry C/C(=C\n1c2c(c3cc(C)ccc31)CN(C)C(C)C2)c1ccncc1 (stereo not drawn) [Compound 257] , inhibition at 0.1 µM value = 71

# next compound below
The observed inhibition at 0.1 µM for C/C(=C\n1c2c(c3cc(F)ccc31)CN(C)CC2)c1ccc(C)nc1 [Compound 251] when tested with human recombinant serotonin (5-Hydroxytryptamine) 5-HT6 receptor (Homo sapiens) stands at 8
